tested on: NCI-H196 complex spheroids with HUVEC/MSC, growth % T/C; assay: Anticancer human tumor NCI-H196 cell line growth inhibition [Asc]; details: second compound 0.316 µM; first compound 0.949 µM; active = viability on the fitted dose curve at most 10% of control; inactive = the rest;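 also: spheroids exposed to compound for 7 days before measurement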
Lab note: assign the record to one of Yes = active, No = inactive

Use the examples below as a reference point.
COMPOUND | QUALITATIVE_LABEL
Cc1nc(N2CCC3(CC2)COC(C)C3N)c(CO)nc1Sc1ccnc(N)c1Cl (centres undefined) + Cc1c(S(C)(=O)=O)c(-c2cc(F)cc(N3CCN(c4ccc(NS(=O)(=O)c5ccc(NC(CCN6CCC(C(=O)OCCCP(=O)(O)O)CC6)CSc6ccccc6)c(S(=O)(=O)C(F)(F)F)c5)cc4)CC3)c2)c(-c2ccc(Cl)cc2)n1C(C)C | No
CCN1C(C(=O)NC23CCC(C(=O)O)(CC2)CC3)C(c2cccc(Cl)c2F)C2(C(=O)Nc3cc(Cl)ccc32)C12CCCCC2 (centres undefined) + Cc1c(S(C)(=O)=O)c(-c2cc(F)cc(N3CCN(c4ccc(NS(=O)(=O)c5ccc(NC(CCN6CCC(C(=O)OCCCP(=O)(O)O)CC6)CSc6ccccc6)c(S(=O)(=O)C(F)(F)F)c5)cc4)CC3)c2)c(-c2ccc(Cl)cc2)n1C(C)C | No
Cc1nc(N2CCC3(CC2)COC(C)C3N)c(CO)nc1Sc1ccnc(N)c1Cl (centres undefined) + CNC(C)C(=O)NC1CN(S(=O)(=O)c2cccc(S(=O)(=O)N3CCC4CCC(C(=O)NC(c5ccccc5)c5ccccc5)N4C(=O)C(NC(=O)C(C)NC)C3)c2)CCC2CCC(C(=O)NC(c3ccccc3)c3ccccc3)N2C1=O | Yes

Pending compound:
Query: Please let me know the test result on file for CCN1C(C(=O)NC23CCC(C(=O)O)(CC2)CC3)C(c2cccc(Cl)c2F)C2(C(=O)Nc3cc(Cl)ccc32)C12CCCCC2 (centres undefined) + CNC(C)C(=O)NC1CN(S(=O)(=O)c2cccc(S(=O)(=O)N3CCC4CCC(C(=O)NC(c5ccccc5)c5ccccc5)N4C(=O)C(NC(=O)C(C)NC)C3)c2)CCC2CCC(C(=O)NC(c3ccccc3)c3ccccc3)N2C1=O .
Response: Yes

The values you see were collected from PubChem BioAssay AID1963439.
